Let's go through some recorded MIC values for Aureobasidium pullulans together.

[[record]]
compound = "IC#CCOc1cccnc1 [drawing 2]"
targetortestsystem = "Aureobasidium pullulans"
experimentalvalue = "0.12 to 0.6 µg/mL"


Log: Aureobasidium pullulans, compound IC#CCSc1cccnc1 [drawing 7] , MIC = 0.12 to 0.6 µg/mL

Log: Aureobasidium pullulans, compound IC#CCSc1ccncc1 [drawing 10] , MIC = 0.12 to 0.6 µg/mL

Log: Aureobasidium pullulans, compound Nc1ncccc1OCC#CI [drawing 6] , MIC = 0.6 to 3 µg/mL

Log: Aureobasidium pullulans, compound Clc1ncccc1OCC#CI [drawing 4] , MIC = 0.12 to 0.6 µg/mL
